Data origin, for the record: PubChem BioAssay (EPA / NIEHS)

Read-out: matrix metalloproteinase-3 (MMP3), MMP3 (gene 4314)
Test: LTEA_HepaRG_MMP3: Life Technologies and Expression Analysis (LTEA) Assay for matrix metalloproteinase-3 (MMP3) using HepaRG (AID 2283519)
Details: mRNA level, 48 h; actives raise or lower the signal
Activity calls are given as the source filed them. How the source made its calls: active means hit-call score of the fitted dose curve at least 0.9, where 1 is the maximum; inactive means score below 0.9.
Outcome codes: T (active), F (inactive)

| compound | className |
| --- | --- |
| Clc1ccc(Cl)cc1 | F |
| O=C(O)C(F)(F)C(F)(F)C(F)(F)C(F)(F)C(F)(F)C(F)(F)C(F)(F)C(F)(F)F | F |
| CC(C)C(=O)OCC(C)(C)C(OC(=O)C(C)C)C(C)C (stereo not drawn) | F |
| CCCN(CCC)N=O | F |
| O=C(NC(=O)c1c(F)cccc1F)Nc1cc(Cl)c(OC(F)(F)C(F)F)c(Cl)c1 | F |
| C[C@]12CCC(=O)C=C1CC[C@@H]1[C@@H]2CC[C@]2(C)C(=O)CC[C@@H]12 | T |
| CCCCCCCCCc1ccc(O)cc1 | F |
| CC1=C2C[C@H]3[C@@H](CC=C4C[C@@H](O)CC[C@@]43C)[C@@H]2CC[C@]12O[C@@H]1C[C@H](C)CN[C@H]1[C@H]2C | F |
| Clc1ccc(C(c2ccccc2Cl)C(Cl)(Cl)Cl)cc1 (stereo not drawn) | F |
| CC(c1ccc(O)cc1)(c1ccc(O)cc1)c1ccc(O)cc1 | F |
| O=C(NC(=O)c1cc(F)c(F)cc1Cl)Nc1cc(F)ccc1N1CCC(C(=O)O)CC1 | F |
| CCC(C)(c1ccc(O)cc1)c1ccc(O)cc1 | F |
| COc1ccc(O)c(C(C)(C)C)c1 | F |
